System: OVCAR-3
Assay: NCI tumour cell line growth inhibition, 48 h
Active and inactive are the calls of the source. Cut-off read from the data, not from the text of the source: active = GI50 up to about 1.1 µM and inactive = higher.
So I've got a bunch of compounds here, and I need their GI50 values.

Enquiry: Can you look up the measured GI50 of N#Cc1ncn(CCO)c1N for me?
Return: > 100 µM (inactive)

Enquiry: Find the recorded GI50 belonging to CC(C)(C)OC(=O)NC(CSCc1ccc(C(=O)c2ccccc2)cc1)C(=O)N1CCN(CCCCN2c3ccccc3Sc3cc(N=[N+]=[N-])ccc32)CC1 (configuration not stated) and report it.
Return: > 100 µM (inactive)

Enquiry: Quick one: GI50 of CN(c1ccccc1)C1C(=O)N(c2ccccc2)C1/C=C/c1ccccc1 (configuration not stated) ?
Return: > 100 µM (inactive)

Enquiry: Would you mind telling me what GI50 value was observed for O=C1CC23CCCCCCCCCCC2(C1)CC(=O)C3 (configuration not stated) ?
Return: 17.7 µM (inactive)

Enquiry: Tell me the measured GI50 of CCc1cccc(C)c1NS(=O)(=O)c1ccccc1 , please.
Return: > 100 µM (inactive)

Enquiry: Fill blank: measured GI50 of the compound CCNc1ncnc2sc(SCc3ccccc3)nc12 is ____.
Return: > 100 µM (inactive)

Enquiry: Entry C#CCNC(Cc1c[nH]cn1)C(=O)O (configuration not stated) has what GI50?
Return: > 100 µM (inactive)

Enquiry: Reported GI50 for O=C(CC/C(CC(=O)c1ccc(Br)cc1)=N\O)Nc1ccc(Cl)c(Cl)c1 : what is it?
Return: 57.5 µM (inactive)

Enquiry: Which measured GI50 value corresponds to N#Cc1c(N)c2c(c(-c3ccccc3)c1-c1ccccc1)C(=O)N(N)C2=O ?
Return: > 100 µM (inactive)

Enquiry: I have this compound here, CCCCCCCCCC(=O)CC(=O)c1c(O)cc(O)cc1O , and I need its recorded GI50.
Return: 16.4 µM (inactive)

Enquiry: Which value of GI50 has been reported for CC(=O)NCCc1c[nH]c2ccc(Cl)cc12 in the records?
Return: > 100 µM (inactive)

Enquiry: Would you mind telling me what GI50 value was observed for O=S(=O)(c1ccccc1)c1ccc(-c2nc(-c3ccc4c(c3)Sc3ccccc3S4)cs2)cc1 ?
Return: > 100 µM (inactive)

Enquiry: What measured GI50 goes with CC1CC2(S(=O)(=O)c3ccccc3)ON1CC2S(=O)(=O)c1ccccc1 (configuration not stated) ?
Return: > 100 µM (inactive)

Enquiry: Entry COc1cc(Nc2nc3cc(C(F)(F)F)ccc3nc2-c2ccccc2)cc(OC)c1OC has what GI50?
Return: 73.3 µM (inactive)

Enquiry: Data request, read-out GI50, for Clc1ccc(-c2cn3c(nc4ccccc43)c(/C=C/c3cccs3)n2)cc1
Return: > 100 µM (inactive)

Enquiry: Request the reported GI50 associated with Cc1c2cccc-2c(N(C)C)cc2c1[nH]c1ccccc12
Return: 4.32 µM (inactive)

Enquiry: Which GI50 value belongs to CC(=O)NNc1nc(C)c(C(=O)NNC(=O)C(=O)Nc2nc3ccc([N+](=O)[O-])cc3s2)s1 ?
Return: 15.3 µM (inactive)

Enquiry: Can you look up the measured GI50 of O=C1c2c(Br)sc(Br)c2C(NC(=O)C(F)(F)F)C1O (configuration not stated) for me?
Return: 19.3 µM (inactive)

Enquiry: Bench note: what GI50 did COC(=O)c1c2c(cc3c1CC1(Cc4cc5c(cc4C1)CCC5)C3)CCC2 show?
Return: > 100 µM (inactive)

Enquiry: Quick one: GI50 for Br[C@@H]1[C@H]2c3nc4ccccc4nc3[C@@H]1C[C@H]2Br ?
Return: 76.9 µM (inactive)

Enquiry: Which GI50 is reported for this compound? Cc1ccc(NC(=O)C(=O)Cc2nc3ccccc3o2)c(C)c1
Return: > 100 µM (inactive)

Enquiry: I am curious: what GI50 value has been reported for CN(c1c(Cl)cccc1Cl)S(=O)(=O)c1ccccc1[N+](=O)[O-] ?
Return: > 100 µM (inactive)

Hey, just so you know, these numbers are from ChEMBL document CHEMBL1201862.
